# credit: patent US5464834A

Target: 5HT1A receptors (Rattus norvegicus, UniProt P19327)
Sequence (P19327 1-422): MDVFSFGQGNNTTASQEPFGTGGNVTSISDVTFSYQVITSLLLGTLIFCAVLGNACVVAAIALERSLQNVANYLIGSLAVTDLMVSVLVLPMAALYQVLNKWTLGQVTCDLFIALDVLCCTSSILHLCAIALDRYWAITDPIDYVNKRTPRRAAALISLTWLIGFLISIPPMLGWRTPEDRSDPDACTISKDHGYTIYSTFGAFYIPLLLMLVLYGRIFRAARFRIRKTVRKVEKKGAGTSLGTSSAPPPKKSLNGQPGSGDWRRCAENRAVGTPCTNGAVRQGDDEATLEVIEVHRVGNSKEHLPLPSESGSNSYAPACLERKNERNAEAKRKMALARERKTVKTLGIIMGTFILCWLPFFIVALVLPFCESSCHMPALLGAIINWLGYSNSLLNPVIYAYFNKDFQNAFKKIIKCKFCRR
Assay: Body temperature / hypothermia, agonist (alone) and antagonist (vs 8-OH-DPAT)
Type: in vivo, rat (male Wistar)
Parameters: from tissue; host or cells: whole living male Wistar rats (endogenous receptor)
Settings: rat, sc; antagonist test; s.c.; vs 8-OH-DPAT 0.16 mg/kg s.c.; read-out: HYPOTHERMIA ID50 (95% CL) + DPAT
Catalogue of ED50 readings, one per entry.
I only need the number, in mg/kg, no unit after it.

Solved cases below.
• c1cc2c(c(N3CCN(CCCc4ccsc4)CC3)c1)OCCO2 = 0.16
• c1ccc(CCCN2CCN(c3cccc4c3OCCO4)CC2)cc1 = 0.63
• c1cc2c(c(N3CCN(CC4Cc5ccsc5C4)CC3)c1)OCCO2 (racemic) = 0.5
• c1cc2c(c(N3CCN(CCc4ccsc4)CC3)c1)OCCO2 = 0.16

Please find the next compound below.
**Query** // returns reported ED50 for input c1cc2c(c(N3CCN(CCc4cccc5ccccc45)CC3)c1)OCCO2
**Result** 0.32
